assay: Plasma pharmacokinetics; format: in vivo, human; conditions: human, plasma, oral, 180 mg/day, Cmax, S2 180 mg/day, Day 18, mean±SD, n=4
measure: Cmax (nM)
The reply should be a number in nM, with the unit left off.

Exercise: Given the compound CNC(=O)c1nn(C)c2c1C(C)(C)Cc1cnc(Nc3ccc(N4CCN(C)CC4)cc3)nc1-2 [PHA-848125AC] , what is its reported Cmax?
Key: 1100

* * *

assay: Plasma pharmacokinetics; type: in vivo, human; conditions: human, plasma, oral, 180 mg/day, t1/2,z, S2 180 mg/day, mean±SD, n=4
measure: half-life (h)
The reply should be a number in h, with the unit left off.

Exercise: Given the molecule CNC(=O)c1nn(C)c2c1C(C)(C)Cc1cnc(Nc3ccc(N4CCN(C)CC4)cc3)nc1-2 [PHA-848125AC] , what is its reported half-life?
Key: 23.5

// provenance: paper PMC3561458
